molecular target: Acetylcholinesterase (Electrophorus electricus, UniProt O42275); experiment: Inhibition of electric eel AChE using acetylthiocholine iodide as substrate preincubated for 5 mins followed by substrate addition and measured after 1 min in presence of H2O2 by Ellman's method
Sequence (O42275 whole entry): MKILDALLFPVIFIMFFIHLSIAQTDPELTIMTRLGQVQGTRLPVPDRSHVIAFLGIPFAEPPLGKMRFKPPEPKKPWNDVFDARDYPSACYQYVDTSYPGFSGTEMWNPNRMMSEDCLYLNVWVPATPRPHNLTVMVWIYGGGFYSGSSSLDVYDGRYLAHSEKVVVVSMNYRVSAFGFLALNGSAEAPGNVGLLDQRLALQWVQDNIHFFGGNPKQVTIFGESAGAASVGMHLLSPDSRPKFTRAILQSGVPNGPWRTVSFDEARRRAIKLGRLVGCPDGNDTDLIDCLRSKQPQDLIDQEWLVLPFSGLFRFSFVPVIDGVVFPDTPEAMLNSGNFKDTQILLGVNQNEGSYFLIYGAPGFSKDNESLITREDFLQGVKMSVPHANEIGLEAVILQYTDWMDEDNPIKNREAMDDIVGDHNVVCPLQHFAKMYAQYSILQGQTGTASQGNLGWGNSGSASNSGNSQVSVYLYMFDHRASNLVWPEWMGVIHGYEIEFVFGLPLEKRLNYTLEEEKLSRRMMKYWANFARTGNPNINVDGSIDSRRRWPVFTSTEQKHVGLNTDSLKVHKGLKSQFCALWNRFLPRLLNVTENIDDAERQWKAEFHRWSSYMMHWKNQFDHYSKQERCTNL

molecule: Cc1cc(COC(=O)NCCNc2c3c(nc4ccccc24)CCCC3)c(OCc2ccc(B3OC(C)(C)C(C)(C)O3)cc2)c(COC(=O)C(C)c2ccc(CC(C)C)cc2)c1 (centres undefined)
outputUnit: nM
IC50: 608
//
molecule: Cc1cc(COC(=O)NCCCNc2c3c(nc4ccccc24)CCCC3)c(OCc2ccc(B3OC(C)(C)C(C)(C)O3)cc2)c(COC(=O)C(C)c2ccc(CC(C)C)cc2)c1 (centres undefined)
outputUnit: nM
IC50: 302
//
molecule: Cc1cc(COC(=O)NCCCCCCNc2c3c(nc4ccccc24)CCCC3)c(OCc2ccc(B3OC(C)(C)C(C)(C)O3)cc2)c(COC(=O)C(C)c2ccc(CC(C)C)cc2)c1 (centres undefined)
outputUnit: nM
IC50: 39.2
//
molecule: Cc1cc(COC(=O)NCCCCNc2c3c(nc4ccccc24)CCCC3)c(OCc2ccc(B3OC(C)(C)C(C)(C)O3)cc2)c(COC(=O)C(C)c2ccc(CC(C)C)cc2)c1 (centres undefined)
outputUnit: nM
IC50: 80

---

assay: in vitro; details: human, SH-SY5Y cells
observable: viability at 24 h, 5 µM

compound: Cc1cc(COC(=O)NCCCCCCNc2c3c(nc4ccccc24)CCCC3)c(OCc2ccc(B3OC(C)(C)C(C)(C)O3)cc2)c(COC(=O)C(C)c2ccc(CC(C)C)cc2)c1 (stereo unspecified)
observable: viability at 24 h, 5 µM
result: 90.4%

---

target: Acetylcholinesterase (Electrophorus electricus); experiment: Inhibition of electric eel AChE at 10 uM using acetylthiocholine iodide as substrate preincubated for 5 mins followed by substrate addition and measured after 1 min by Ellman's method relative to control; settings: time 6.0 min
observable: inhibition (%)

molecule: Cc1cc(COC(=O)NCCCCNc2c3c(nc4ccccc24)CCCC3)c(OCc2ccc(B3OC(C)(C)C(C)(C)O3)cc2)c(COC(=O)C(C)c2ccc(CC(C)C)cc2)c1 (centres undefined)
targetSystem: Acetylcholinesterase (Electrophorus electricus)
observable: inhibition
readoutNumber: 46
--
molecule: Cc1cc(COC(=O)NCCCNc2c3c(nc4ccccc24)CCCC3)c(OCc2ccc(B3OC(C)(C)C(C)(C)O3)cc2)c(COC(=O)C(C)c2ccc(CC(C)C)cc2)c1 (centres undefined)
targetSystem: Acetylcholinesterase (Electrophorus electricus)
observable: inhibition
readoutNumber: 32.9
--
molecule: Cc1cc(COC(=O)NCCCCCCNc2c3c(nc4ccccc24)CCCC3)c(OCc2ccc(B3OC(C)(C)C(C)(C)O3)cc2)c(COC(=O)C(C)c2ccc(CC(C)C)cc2)c1 (centres undefined)
targetSystem: Acetylcholinesterase (Electrophorus electricus)
observable: inhibition
readoutNumber: 47.2
--
molecule: Cc1cc(COC(=O)NCCNc2c3c(nc4ccccc24)CCCC3)c(OCc2ccc(B3OC(C)(C)C(C)(C)O3)cc2)c(COC(=O)C(C)c2ccc(CC(C)C)cc2)c1 (centres undefined)
targetSystem: Acetylcholinesterase (Electrophorus electricus)
observable: inhibition
readoutNumber: 28.2
